System: MCF7 breast
Assay: NCI-60 one-dose screen, 48 h
Details: 100 µM
The panel holds about 83,000 compounds, 20% with a hit somewhere; the sample as a whole holds those more often. The source made the active and inactive calls. The calls were made as follows: active = growth percent below 10; inactive = the rest.
Outcome codes: 1.0 (active), 0.0 (inactive)

{"STRUCTURE SMILES STRING": "CCN(Cc1ccccc1)c1ccc(/C=C2\\COc3ccccc3C2=O)cc1", "ASSIGNED LABEL": 0.0}
{"STRUCTURE SMILES STRING": "CC(=O)/C=C/c1ccc(OCc2ccc(Cl)cc2)cc1", "ASSIGNED LABEL": 0.0}
{"STRUCTURE SMILES STRING": "O=C(/C=C/c1cccc(Oc2ccc(Cl)cc2)c1)c1ccccc1", "ASSIGNED LABEL": 1.0}
{"STRUCTURE SMILES STRING": "COc1ccc(C(=O)/C=C/c2ccc(OCc3ccc(Cl)cc3)cc2)cc1OC", "ASSIGNED LABEL": 1.0}
